- Test system: E. coli ATCC 25922
- Type: cell-based, Escherichia coli
- assay_context: (Supplement 2)
Where a SMILES comes first, the peptide text is derived from it. [ ]: non-standard residue; d: D form. The star is where a group is joined. ξ: configuration not given here. Octanoyl(7-Me) = CC(C)CCCCCC(=O)*; Hexanoyl(4ξ-Me) = CCC(C)CCC(=O)*; dOrn = NCCC[C@@H](N)C(=O)O; Orn = NCCC[C@H](N)C(=O)O; Dap = NC[C@H](N)C(=O)O; Alloc = C=CCOC(=O)*
Recorded MIC (µg/mL) against E. coli (ATCC 25922) values for a group of molecules are listed next.
Expressed in µg/mL, but write only the number.

molecule="CCC(C)CCC(=O)N[C@H](CC(N)=O)C(=O)N[C@H](Cc1ccc(O)cc1)C(=O)N[C@H](Cc1c[nH]c2ccccc12)C(=O)N[C@H](CCCN)C(=O)N[C@@H](CCCN)C(=O)NCC(=O)N[C@H](CCCN)C(=O)N[C@@H](Cc1c[nH]c2ccccc12)C(=O)N[C@@H](CCSC)C(=O)N[C@H](C(=O)NCC(N)=O)[C@@H](C)CC (some centres unmarked) [Δ12LB (Met9)-NH2 (55)] ({Hexanoyl(4ξ-Me)}-[dN][dY][dW][dOrn][Orn]G[dOrn]WMIG-NH2)" reading_unit=µg/mL test_value=2

Now consider the entry below.
Looking up C=CCOC(=O)NC[C@H](NC(=O)[C@H](Cc1c[nH]c2ccccc12)NC(=O)[C@@H](CCCN)NC(=O)CNC(=O)[C@H](CCCN)NC(=O)[C@@H](CCCN)NC(=O)[C@@H](Cc1c[nH]c2ccccc12)NC(=O)[C@@H](Cc1ccc(O)cc1)NC(=O)[C@@H](CO)NC(=O)CCCCCC(C)C)C(=O)N[C@H](C(=O)N[C@@H](CC(N)=O)C(=O)NCC(=O)NCC(N)=O)[C@@H](C)CC [LL(Dap[Alloc]9)-NH2 (50)] ({Octanoyl(7-Me)}-[dS][dY][dW][dOrn][Orn]G[dOrn]W[Dap](Alloc)INGG-NH2) , I found its MIC (µg/mL) against E. coli (ATCC 25922) recorded as 2

###

- System: E. coli ATCC 25922
- Assay type: cell-based, Escherichia coli
- assay_context: (Supplement 2)
Where a SMILES comes first, the peptide text is derived from it. [ ]: non-standard residue; d: D form. The star is where a group is joined. ξ: configuration not given here. Octanoyl(7-Me) = CC(C)CCCCCC(=O)*; Hexanoyl(4ξ-Me) = CCC(C)CCC(=O)*; dOrn = NCCC[C@@H](N)C(=O)O; Orn = NCCC[C@H](N)C(=O)O; Dap = NC[C@H](N)C(=O)O
measurement_kind: MIC (µg/mL) against E. coli (ATCC 25922)

As a guide, the following entries are already answered.
compound="CC[C@H](C)[C@H](NC(=O)[C@H](CN)NC(=O)[C@H](Cc1c[nH]c2ccccc12)NC(=O)[C@@H](CCCN)NC(=O)CNC(=O)[C@H](CCCN)NC(=O)[C@@H](CCCN)NC(=O)[C@@H](Cc1c[nH]c2ccccc12)NC(=O)[C@@H](Cc1ccc(O)cc1)NC(=O)[C@@H](CO)NC(=O)CCCCCC(C)C)C(=O)N[C@@H](CC(N)=O)C(=O)NCC(=O)NCC(N)=O [LL(Dap9)-NH2 (52)] ({Octanoyl(7-Me)}-[dS][dY][dW][dOrn][Orn]G[dOrn]W[Dap]INGG-NH2)" measured_target="E. coli ATCC 25922" test_value="8 µg/mL"
compound="CCC(C)CCC(=O)N[C@H](CC(N)=O)C(=O)N[C@H](Cc1ccc(O)cc1)C(=O)N[C@H](Cc1c[nH]c2ccccc12)C(=O)N[C@H](CCCN)C(=O)N[C@@H](CCCN)C(=O)NCC(=O)N[C@H](CCCN)C(=O)N[C@@H](C)C(=O)N[C@H](C(=O)N[C@H](C(=O)NCC(=O)N[C@@H](CO)C(N)=O)[C@@H](C)CC)[C@@H](C)O (stereo partly drawn) [LB(Ala8)-NH2 (24)] ({Hexanoyl(4ξ-Me)}-[dN][dY][dW][dOrn][Orn]G[dOrn]ATIGS-NH2)" measured_target="E. coli ATCC 25922" test_value=">32 µg/mL"

Next item in the queue.
Entry CCC(C)CCC(=O)N[C@H](CC(N)=O)C(=O)N[C@H](Cc1ccc(O)cc1)C(=O)N[C@H](Cc1c[nH]c2ccccc12)C(=O)N[C@H](CCCN)C(=O)N[C@@H](CCCN)C(=O)NCC(=O)N[C@H](CCCN)C(=O)N[C@@H](Cc1c[nH]c2ccccc12)C(=O)N[C@@H](CN)C(=O)N[C@H](C(=O)NCC(N)=O)[C@@H](C)CC (stereo partly drawn) [Δ12LB (Dap9)-NH2 (64)] ({Hexanoyl(4ξ-Me)}-[dN][dY][dW][dOrn][Orn]G[dOrn]W[Dap]IG-NH2) — recorded MIC (µg/mL) against E. coli (ATCC 25922) = >32 µg/mL

###

- System: S. aureus USA300
- Assay type: cell-based, Staphylococcus aureus
- assay_context: microbroth dilution per CLSI, MHB, 18 h at 37 °C, visual inspection, three technical replicates
- Protocol: Linear laterocidine (LL-OH, 4) and linear brevicidine (LB-OH, 5) were first synthesized by Fmoc SPPS, starting from 2-chlorotrityl (2-CT) chloride resin. […] The MICs of all peptides were determined against a panel of Gram-negative and Gram-positive ESKAPE pathogens. […] All minimum inhibitory concentrations (MICs) were determined according to Clinical and Laboratory Standards Institute (CLSI) guidelines. […]
Where a SMILES comes first, the peptide text is derived from it. [ ]: non-standard residue; d: D form. The star is where a group is joined. ξ: configuration not given here. Octanoyl(7-Me) = CC(C)CCCCCC(=O)*; Hexanoyl(4ξ-Me) = CCC(C)CCC(=O)*; dOrn = NCCC[C@@H](N)C(=O)O; Orn = NCCC[C@H](N)C(=O)O; Dap = NC[C@H](N)C(=O)O; Alloc = C=CCOC(=O)*
measurement_kind: Antibacterial activity (MIC) S. aureus USA300

Some solved cases for reference:
molecule="CC[C@H](C)[C@H](NC(=O)[C@@H](NC(=O)[C@H](Cc1c[nH]c2ccccc12)NC(=O)[C@@H](CCCN)NC(=O)CNC(=O)[C@H](C)NC(=O)[C@@H](CCCN)NC(=O)[C@@H](Cc1c[nH]c2ccccc12)NC(=O)[C@@H](Cc1ccc(O)cc1)NC(=O)[C@@H](CO)NC(=O)CCCCCC(C)C)[C@@H](C)O)C(=O)N[C@@H](CC(N)=O)C(=O)NCC(=O)NCC(N)=O [LL(Ala5)-NH2 (33)] ({Octanoyl(7-Me)}-[dS][dY][dW][dOrn]AG[dOrn]WTINGG-NH2)" test_value=">32 µg/mL"
molecule="CC[C@H](C)[C@H](NC(=O)[C@H](CCC(N)=O)NC(=O)[C@H](Cc1c[nH]c2ccccc12)NC(=O)[C@@H](CCCN)NC(=O)CNC(=O)[C@H](CCCN)NC(=O)[C@@H](CCCN)NC(=O)[C@@H](Cc1c[nH]c2ccccc12)NC(=O)[C@@H](Cc1ccc(O)cc1)NC(=O)[C@@H](CO)NC(=O)CCCCCC(C)C)C(=O)N[C@@H](CC(N)=O)C(=O)NCC(=O)NCC(N)=O [LL(Gln9)-NH2 (48)] ({Octanoyl(7-Me)}-[dS][dY][dW][dOrn][Orn]G[dOrn]WQINGG-NH2)" test_value=">32 µg/mL"
molecule="CC[C@H](C)[C@H](NC(=O)[C@@H](NC(=O)[C@H](Cc1c[nH]c2ccccc12)NC(=O)[C@@H](CCCN)NC(=O)CNC(=O)[C@H](CCCN)NC(=O)[C@@H](C)NC(=O)[C@@H](Cc1c[nH]c2ccccc12)NC(=O)[C@@H](Cc1ccc(O)cc1)NC(=O)[C@@H](CO)NC(=O)CCCCCC(C)C)[C@@H](C)O)C(=O)N[C@@H](CC(N)=O)C(=O)NCC(=O)NCC(N)=O [LL(D-Ala4)-NH2 (32)] ({Octanoyl(7-Me)}-[dS][dY][dW][dA][Orn]G[dOrn]WTINGG-NH2)" test_value=">32 µg/mL"
molecule="CCC(C)CCC(=O)N[C@H](CC(N)=O)C(=O)N[C@H](Cc1ccc(O)cc1)C(=O)N[C@H](Cc1c[nH]c2ccccc12)C(=O)N[C@H](CCCN)C(=O)N[C@@H](CCCN)C(=O)NCC(=O)N[C@H](CCCN)C(=O)N[C@@H](Cc1c[nH]c2ccccc12)C(=O)N[C@@H](CN)C(=O)N[C@H](C(=O)NCC(N)=O)[C@@H](C)CC (stereo partly drawn) [Δ12LB (Dap9)-NH2 (64)] ({Hexanoyl(4ξ-Me)}-[dN][dY][dW][dOrn][Orn]G[dOrn]W[Dap]IG-NH2)" test_value=">32 µg/mL"

Reported Antibacterial activity (MIC) S. aureus USA300 of CC(C)CCCCCC(=O)N[C@H](CO)C(=O)N[C@H](Cc1ccc(O)cc1)C(=O)N[C@H](Cc1c[nH]c2ccccc12)C(=O)N[C@H](CCCN)C(=O)N[C@@H](CCCN)C(=O)NCC(=O)N[C@H](CCCN)C(=O)N[C@@H](Cc1c[nH]c2ccccc12)C(=O)N[C@H](C(N)=O)[C@@H](C)O [Δ10–13LL-NH2 (14)] ({Octanoyl(7-Me)}-[dS][dY][dW][dOrn][Orn]G[dOrn]WT-NH2) : >32 µg/mL

The molecule listed as CC[C@H](C)[C@H](NC(=O)[C@H](CC(N)=O)NC(=O)[C@H](Cc1c[nH]c2ccccc12)NC(=O)[C@@H](CCCN)NC(=O)CNC(=O)[C@H](CCCN)NC(=O)[C@@H](CCCN)NC(=O)[C@@H](Cc1c[nH]c2ccccc12)NC(=O)[C@@H](Cc1ccc(O)cc1)NC(=O)[C@@H](CO)NC(=O)CCCCCC(C)C)C(=O)N[C@@H](CC(N)=O)C(=O)NCC(=O)NCC(N)=O [LL(Asn9)-NH2 (47)] ({Octanoyl(7-Me)}-[dS][dY][dW][dOrn][Orn]G[dOrn]WNINGG-NH2) shows Antibacterial activity (MIC) S. aureus USA300 equal to >32 µg/mL

The molecule identified as CC[C@H](C)[C@H](NC(=O)[C@H](Cc1c[nH]c2ccccc12)NC(=O)[C@H](Cc1c[nH]c2ccccc12)NC(=O)[C@@H](CCCN)NC(=O)CNC(=O)[C@H](CCCN)NC(=O)[C@@H](CCCN)NC(=O)[C@@H](Cc1c[nH]c2ccccc12)NC(=O)[C@@H](Cc1ccc(O)cc1)NC(=O)[C@@H](CO)NC(=O)CCCCCC(C)C)C(=O)N[C@@H](CC(N)=O)C(=O)NCC(=O)NCC(N)=O [LL(Trp9)-NH2 (45)] ({Octanoyl(7-Me)}-[dS][dY][dW][dOrn][Orn]G[dOrn]WWINGG-NH2) registered its Antibacterial activity (MIC) S. aureus USA300 at >32 µg/mL

Value of Antibacterial activity (MIC) S. aureus USA300 reported for the molecule C=CCOC(=O)NC[C@H](NC(=O)[C@H](Cc1c[nH]c2ccccc12)NC(=O)[C@@H](CCCN)NC(=O)CNC(=O)[C@H](CCCN)NC(=O)[C@@H](CCCN)NC(=O)[C@@H](Cc1c[nH]c2ccccc12)NC(=O)[C@@H](Cc1ccc(O)cc1)NC(=O)[C@@H](CO)NC(=O)CCCCCC(C)C)C(=O)N[C@H](C(=O)N[C@@H](CC(N)=O)C(=O)NCC(=O)NCC(N)=O)[C@@H](C)CC [LL(Dap[Alloc]9)-NH2 (50)] ({Octanoyl(7-Me)}-[dS][dY][dW][dOrn][Orn]G[dOrn]W[Dap](Alloc)INGG-NH2) is >32 µg/mL

Record CC[C@H](C)[C@H](NC(=O)[C@H](CN)NC(=O)[C@H](Cc1c[nH]c2ccccc12)NC(=O)[C@@H](CCCN)NC(=O)CNC(=O)[C@H](CCCN)NC(=O)[C@@H](CCCN)NC(=O)[C@@H](Cc1c[nH]c2ccccc12)NC(=O)[C@@H](Cc1ccc(O)cc1)NC(=O)[C@@H](CO)NC(=O)CCCCCC(C)C)C(=O)N[C@@H](CC(N)=O)C(=O)NCC(=O)NCC(N)=O [LL(Dap9)-NH2 (52)] ({Octanoyl(7-Me)}-[dS][dY][dW][dOrn][Orn]G[dOrn]W[Dap]INGG-NH2) , field Antibacterial activity (MIC) S. aureus USA300: >32 µg/mL

These measurements were taken from paper PMC10150354.
